# Tested on: SW-620
# Measurement protocol: NCI tumour cell line growth inhibition, 48 h
Active and inactive are the calls of the source. Cut-off read from the data, not from the text of the source: active = GI50 up to about 1.1 µM and inactive = higher. Square brackets hold non-standard residues; d marks the D form. Peptide text beside a SMILES is read from it. * marks the point of attachment. AllylGly = C=CC[CH](N)C(=O)O; Boc = CC(C)(C)OC(=O)*; OtBu = CC(C)(C)O*
Would you mind answering with one of these outcomes? 1 = active, 0 = inactive

N/N=C1\C(OC(=O)Nc2cccc(Cl)c2)=Nc2ccccc21    0
Cc1ccc(/N=N/c2c(O)ccc3cc(S(=O)(=O)O)cc(S(=O)(=O)O)c23)cc1    0
Cc1nc2c(O)c3c(c(O)c2nc1C)C1C=CC3CC1    0
CC(=O)c1c(P(=O)(OC(C)C)OC(C)C)nn(-c2ccc([N+](=O)[O-])cc2)c1C    0

Input line: Per the records of this test, what outcome belongs to Cc1cccc2nc3cccc(C(=O)NCCN(C)C)c3nc12 ?
Output line: 1

Input line: Per the records of this test, what outcome belongs to CN(C)c1ccc(-c2nc(N)nc3c2CCCC3)cc1 ?
Output line: 0

Input line: Per the records of this test, what outcome belongs to Cn1c(=O)[nH]c2nncnc2c1=O ?
Output line: 0

Input line: Per the records of this test, what outcome belongs to O=S(=O)(NC(c1ccccc1)(c1cc2ccccc2[nH]1)c1cc2ccccc2n1S(=O)(=O)c1ccccc1)c1ccccc1 (stereo not given) ?
Output line: 0

Input line: Per the records of this test, what outcome belongs to C=CCC(NC(=O)C(CC(=O)OC(C)(C)C)NC(=O)OC(C)(C)C)C(=O)OC (stereo not given) (Boc-Asp(OtBu)-[AllylGly]-OMe; configuration not given here) ?
Output line: 0

Input line: Per the records of this test, what outcome belongs to COc1cc(S(=O)(=O)Nc2nc(-c3ccc(/N=C/c4cccs4)cc3)cs2)ccc1Cl ?
Output line: 0

Input line: Per the records of this test, what outcome belongs to CN1CCN(c2ccc3nc(C4=C(O)C(=O)c5c(nc(CO)n5C)C4=O)[nH]c3n2)CC1 ?
Output line: 0

Input line: Per the records of this test, what outcome belongs to CC1(C)CN=C(Nc2ccc(F)c(F)c2)S1 ?
Output line: 0

Input line: Per the records of this test, what outcome belongs to OC[C@@H](O)[C@H](O)[C@H](O)[C@@H](O)C1SCCCS1 ?
Output line: 0

----------
# System: SF-295
# Measurement protocol: NCI tumour cell line growth inhibition, 48 h
Activity calls are given as the source filed them. No stated cut-off is given here; in the data, active = GI50 up to about 1.1 µM and inactive = higher.
Would you mind answering with one of these outcomes? y for active, n for inactive

C=C(CN(C)C)C(=O)c1ccccc1    n
COc1ccc(/C=C2\CCC(CNc3ccc(Br)cc3)C2=O)cc1 (stereo not drawn)    n
C=C1C(=O)O[C@H](c2ccoc2)C[C@@H]1[C@@]1(C)CCCC2(C)C(=O)OCC21 (stereo partly drawn)    n

Input line: Per the records of this test, what outcome belongs to CN1CCN(c2ccc3nc(C4=C(O)C(=O)c5c(nc(CO)n5C)C4=O)[nH]c3n2)CC1 ?
Output line: n

Input line: Per the records of this test, what outcome belongs to CC1(C)CC[C@]2(C(=O)O)CC[C@]3(C)C(=CC[C@@H]4[C@@]5(C)C[C@H](O)[C@H](O)[C@@](C)(CO)C5=CC[C@]43C)[C@@H]2C1 ?
Output line: n

Input line: Per the records of this test, what outcome belongs to O=C1C=C(Nc2ccc(Br)cc2)c2ccccc2C1=O ?
Output line: n

----------
# System: HL-60
# Measurement protocol: NCI tumour cell line growth inhibition, 48 h
The source made the active and inactive calls. No stated cut-off is given here; in the data, active = GI50 up to about 1.1 µM and inactive = higher.
Would you mind answering with one of these outcomes? 1 for active, 0 for inactive

Study these solved cases before continuing.
O=S(=O)(NC(c1ccccc1)(c1cc2ccccc2[nH]1)c1cc2ccccc2n1S(=O)(=O)c1ccccc1)c1ccccc1 (stereo not given)    0
CN(Cc1ccccc1)Cn1ccnc1    0
CC(C)(C)OC(=O)NCCCNC1(c2cc3ccccc3s2)CCCCC1    0
CCOc1ccc(NC(=O)C2=C(C)NC(C)=C(C(=O)Nc3ccc(OCC)cc3)C2c2ccccc2)cc1    0

Okay, now this molecule:
Input line: Per the records of this test, what outcome belongs to Cc1ccc(/N=N/c2c(O)ccc3cc(S(=O)(=O)O)cc(S(=O)(=O)O)c23)cc1 ?
Output line: 0

----------
# System: SK-MEL-28
# Measurement protocol: NCI tumour cell line growth inhibition, 48 h
The source made the active and inactive calls. Cut-off read from the data, not from the text of the source: active = GI50 up to about 1.1 µM and inactive = higher.
Would you mind answering with one of these outcomes? 1 (active), 0 (inactive)

Study these solved cases before continuing.
O=C1CCc2cc3c(cc21)C(C(=O)O)CC3 (stereo unspecified)    0
N#C[C@H](c1nc2ccccc2[nH]1)c1nc2ccccc2nc1Cl    0
CCCC(=O)OC1C(C(O)CO)OC2OC(C)(C)OC21 (stereo unspecified)    0
COC1/C=C\C=C(/C)C(=O)NC2=CC(=O)C(NCCCl)=C(CC(C)CC(OC)C(O)C(C)/C=C(/C)C1OC(N)=O)C2=O (stereo unspecified)    1

Input line: Per the records of this test, what outcome belongs to CN(C)Cc1cc(C(=O)/C=C/c2ccc(/C=C/C(=O)c3cc(CN(C)C)c(O)c(CN(C)C)c3)cc2)cc(CN(C)C)c1O ?
Output line: 0

Input line: Per the records of this test, what outcome belongs to CCP(C)(C)=O ?
Output line: 0

Input line: Per the records of this test, what outcome belongs to CNC(=O)SCC(N)C(=O)O (stereo unspecified) ?
Output line: 0

----------
# reported GI50; entries follow
# Test system: ACHN
# Measurement protocol: NCI tumour cell line growth inhibition, 48 h
Activity calls are given as the source filed them. No stated cut-off is given here; in the data, active = GI50 up to about 1.1 µM and inactive = higher.

Known results for molecules:
Cc1ccc(-c2nc(Cc3n[nH]c(-c4ccc(C)cc4)n3)n[nH]2)cc1    6.38 µM (inactive)
CC1=C(O)C(O)=C(C2=C(O)C(O)=C(C)C(=O)C2=O)C(=O)C1=O    28.1 µM (inactive)
O=C(Nn1cnn2c(=O)c3ccccc3nc2c1=O)c1ccccc1    > 100 µM (inactive)
Cc1ccc(/N=N/c2c(C)c(C#N)c(=S)n(C3OC(CO)C(O)C(O)C3O)c2C)cc1 (centres undefined)    34 µM (inactive)
Cc1cc(C)c(/N=N/c2c(O)c(S(=O)(=O)O)cc3cc(S(=O)(=O)O)ccc23)cc1C    > 100 µM (inactive)
CCOC(=O)c1c(NC(=O)c2cccs2)sc2c1CCCC2    > 68.1 µM (inactive)
COC(=O)Cc1c([C@H]2[C@H](CC(=O)OC)c3ccccc3N2C(C)=O)[nH]c2ccccc12    > 100 µM (inactive)
O=C(/N=c1/[nH]/c(=N/C(=O)c2ccccc2)ss1)c1ccccc1    13.8 µM (inactive)

Here is the next item to consider.
Input line: Param item = COC(=O)[C@H](Cc1ccc(OC(C)(C)C)cc1)N[C@H](C)C(=O)N[C@@H](Cc1ccccc1)C(=O)OCc1ccccc1 ; retrieve measured GI50.
Output line: 93.1 µM (inactive)

----------
# System: CAKI-1
# Measurement protocol: NCI tumour cell line growth inhibition, 48 h
Activity calls are given as the source filed them. No stated cut-off is given here; in the data, active = GI50 up to about 1.1 µM and inactive = higher.
# reported GI50; entries follow

Known results for compounds:
COC(=O)C(C(=O)C(=O)Nc1ccc(C)cc1)c1nc2ccc([N+](=O)[O-])cc2nc1O (stereo not given)    > 100 µM (inactive)
Cn1c2c(c3ccccc31)CCN(CCCCN1CCc3c(n(C)c4ccccc34)C1=O)C2    > 100 µM (inactive)
COc1cccc(-c2nnc3c(-c4ccccc4)nc4ccccc4n23)c1    33.6 µM (inactive)
Cc1ccc(/N=N/c2c(O)ccc3cc(S(=O)(=O)O)cc(S(=O)(=O)O)c23)cc1    > 100 µM (inactive)
Cc1ccc(-c2cc(C(F)(F)F)nn2-c2ccc(S(N)(=O)=O)cc2)cc1 [CELECOXIB]    19.6 µM (inactive)
CCOC(=O)C(=O)Nc1ccccc1C(F)(F)F    > 100 µM (inactive)
O=C(N/C(=C\c1ccccc1O)c1nc2ccccc2[nH]1)c1ccccc1    > 100 µM (inactive)
CC1(C)CCC[C@@]2(C)C1CCC1(C)C(CCc3ccoc3)/C(=C/OS(=O)(=O)O)CCC12 (stereo not given in full)    > 100 µM (inactive)

Input line: Param item = CC(=O)c1nc2ccccc2n1CC(=O)c1ccc(Cl)cc1 ; retrieve measured GI50.
Output line: 5.25 µM (inactive)

Input line: Param item = CCN(CC)Cc1cc(Nc2c3ccccc3nc3c4ccccc4n(C)c23)cc(CN(CC)CC)c1O ; retrieve measured GI50.
Output line: 13.5 µM (inactive)

----------
# System: 786-0
# Measurement protocol: NCI tumour cell line growth inhibition, 48 h
Activity calls are given as the source filed them. Rule as the data show it: active = GI50 up to about 1.1 µM and inactive = higher.
Would you mind answering with one of these outcomes? 1 (active), -1 (inactive)

CC1(C)C2CCC1(C)C(OC(=O)/C=C/C(=O)OC1CC3CCC1(C)C3(C)C)C2 (stereo not drawn)    -1

Input line: Per the records of this test, what outcome belongs to Cc1cc2c(cc1C)[n+]([O-])c(C(=O)C/C(=N/NC(=O)CC#N)C(=O)Nc1ccccc1C(F)(F)F)c(C)[n+]2[O-] ?
Output line: -1

Input line: Per the records of this test, what outcome belongs to NC(=O)C(=CN1C(=O)CC(=O)NC1=S)C(N)=O ?
Output line: -1

Input line: Per the records of this test, what outcome belongs to CSc1c(C(=O)Nc2ccc(C)cc2)c(N)n(N)c(=O)c1C#N ?
Output line: -1

Input line: Per the records of this test, what outcome belongs to [O-]c1c2cc(-[n+]3c(-c4ccccc4)cc(-c4ccccc4)cc3-c3ccccc3)cc1CO[C@@H](c1ccccc1)[C@H](c1ccccc1)OCc1cccc(n1)CO[C@@H](c1ccccc1)[C@H](c1ccccc1)OC2 ?
Output line: 1

Input line: Per the records of this test, what outcome belongs to CCOC(=O)c1ccc(NCC#CCN2CCOCC2)cc1 ?
Output line: -1

Input line: Per the records of this test, what outcome belongs to O=C(/C=C1\C[C@H]2C=Nc3ccccc3C(=O)N2C1)NCCCCNC(=O)/C=C1\C[C@H]2C=Nc3ccccc3C(=O)N2C1 ?
Output line: -1

Input line: Per the records of this test, what outcome belongs to CC(C)(C)N1CC2(CCCCC2)C1=O ?
Output line: -1
